- test: inhibitors of TNFa-induced NFkB p65 translocation, primary screen, imaging, HUVEC, MLSMR starter and 10KST1 sets (AID 438);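 further: compound added about 3h40 before a 20 min TNFalpha stimulation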
- runConditions: HUVEC TNFa-induced p65 nuclear translocation; measured here: nuclei count (cytotoxicity indicator), at 2.08 µM
So basically, the class depends on measured cell count, and the ranges are bottom range: < 400; center range: ≥ 400 and < 600; top range: ≥ 600

In [3]: df
Out[3]:
                                   compound  assignedclass
0  COc1ccc(-c2c3c(=O)n(C)c(=O)n(C)c3cn2-c2cccc(OC)c2)cc1   center range
1                   Oc1c(Cl)cc(Cl)c2c1NCCC2   bottom range

Below: the item to evaluate.
Which cell count band matches Cc1cc(C)cc(N2C(=O)C3C4C=CC(C4)C3C2=O)c1 (stereo unspecified) ? top range

----------
- test: blockers of RIG-like receptor reporter activation – cell-based, Sendai virus stimulus, luciferase, 10K MLSCN set, TLR/RLR signaling modifier project, primary screen (AID 602276);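 further: firefly luciferase from ISG56 promoter only with Renilla not read in this screen; 0% = Sendai virus plus DMSO and 100% = medium plus DMSO without virus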
- runConditions: HEK293 RL24 IRF3 luciferase reporter, at 10 µM, stronger effect = higher value
reportedEndpoint: inhibition (%)
Write down the numeric answer in % and omit the unit.

                                   molecule  reportedendpoint  result
0                O=C(c1ccc2snnc2c1)N1CCOCC1        inhibition    10.1
1     COC(=O)c1cc2ccsc2n1CC(=O)N(C)c1ccccc1        inhibition    13.3
2  COc1cc(C(=O)N2CCN(C(=O)CC(C)C)CC2)cc(OC)c1OC        inhibition   -10.1
3         CC(=O)NC1=NC(=O)/C(=C/N2CCCCC2)S1        inhibition    21.1
4  CCn1c(CSc2nnc(-c3cccnc3)n2-c2ccccc2C)nc2cc(C(=O)O)ccc21        inhibition    2.24

Item CCCC1(C(=O)OCC)NC(c2ccc(N(C)C)cc2)C2C(=O)N(c3ccccc3)C(=O)C21 (stereo unspecified) : provide inhibition 8.02

Item "Cn1c(C(=O)NCc2cccnc2)cc2sccc21" : provide inhibition -11.9

Item "CCn1c(=O)cc(OCC(=O)Nc2cc(C)ccn2)c2ccccc21" : provide inhibition 13.4

----------
- target: Voltage-gated potassium channel subunit beta-2 (Rattus norvegicus) (UniProt P62483)
- Sequence (P62483 whole entry, looked up): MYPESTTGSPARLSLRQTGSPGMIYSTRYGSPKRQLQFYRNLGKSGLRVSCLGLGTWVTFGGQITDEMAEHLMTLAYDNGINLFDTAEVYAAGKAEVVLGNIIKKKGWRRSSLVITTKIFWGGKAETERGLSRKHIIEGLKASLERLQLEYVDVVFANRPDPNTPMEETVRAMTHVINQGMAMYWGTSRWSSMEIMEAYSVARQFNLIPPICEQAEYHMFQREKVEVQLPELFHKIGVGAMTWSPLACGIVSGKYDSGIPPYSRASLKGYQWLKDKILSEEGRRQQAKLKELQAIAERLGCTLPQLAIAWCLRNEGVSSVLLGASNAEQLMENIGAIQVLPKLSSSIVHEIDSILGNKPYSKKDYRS
- test: inhibitors of rat Kvbeta2 reductase activity – biochemical, NADPH fluorescence, primary screen (AID 622);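 further: slope of raw intensity against log time taken from 70 to 1610 s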
- runConditions: recombinant KvBeta, 4-cyanobenzaldehyde reduction, at 10 µM, stronger effect = higher value
reportedEndpoint: fluorescence slope
Give a plain numeric answer without units written out.

>>> df
                                   compound  result
0  CCOC(=O)c1c(C)oc2ccc(NS(=O)(=O)c3ccc4c5c(cccc35)C(=O)N4)cc12  -0.223

State the measured fluorescence slope (Voltage-gated potassium channel subunit beta-2 (Rattus norvegicus) (UniProt P62483)) of "CCN(CC)S(=O)(=O)c1cccc(-c2nnc(SCCOc3ccccc3C)o2)c1" -0.458

State the measured fluorescence slope (Voltage-gated potassium channel subunit beta-2 (Rattus norvegicus) (UniProt P62483)) of "COc1ccc(S(=O)(=O)Nc2ccc(Cl)cn2)c(C)c1C" -0.387

State the measured fluorescence slope (Voltage-gated potassium channel subunit beta-2 (Rattus norvegicus) (UniProt P62483)) of "Cc1cnc(C(=O)Nc2ccccc2-n2cccc2)cn1" -0.379

State the measured fluorescence slope (Voltage-gated potassium channel subunit beta-2 (Rattus norvegicus) (UniProt P62483)) of "CCOc1ccc(Cl)cc1S(=O)(=O)N1CCCC1" -0.453

State the measured fluorescence slope (Voltage-gated potassium channel subunit beta-2 (Rattus norvegicus) (UniProt P62483)) of COC(=O)C(C#N)C(=C1C(=O)CC(C)(C)CC1=O)c1ccc(O)cc1 (stereo unspecified) -0.319

State the measured fluorescence slope (Voltage-gated potassium channel subunit beta-2 (Rattus norvegicus) (UniProt P62483)) of "Cc1cc(/C=N/n2cnnc2)c(C)n1-c1cccc(Cl)c1" -0.364

State the measured fluorescence slope (Voltage-gated potassium channel subunit beta-2 (Rattus norvegicus) (UniProt P62483)) of COc1ccc(N2CCC(CNS(=O)(=O)c3cccc(C(F)(F)F)c3)C2)cc1 (stereo unspecified) -0.494

FYI, the data here is from PubChem BioAssay.
